Measured values drawn from patent US20250109139A1 for this set.

# assayed system: 5-hydroxytryptamine 1A (5-HT1A) receptors (Homo sapiens (Human))
# Sequence (P08908 whole entry): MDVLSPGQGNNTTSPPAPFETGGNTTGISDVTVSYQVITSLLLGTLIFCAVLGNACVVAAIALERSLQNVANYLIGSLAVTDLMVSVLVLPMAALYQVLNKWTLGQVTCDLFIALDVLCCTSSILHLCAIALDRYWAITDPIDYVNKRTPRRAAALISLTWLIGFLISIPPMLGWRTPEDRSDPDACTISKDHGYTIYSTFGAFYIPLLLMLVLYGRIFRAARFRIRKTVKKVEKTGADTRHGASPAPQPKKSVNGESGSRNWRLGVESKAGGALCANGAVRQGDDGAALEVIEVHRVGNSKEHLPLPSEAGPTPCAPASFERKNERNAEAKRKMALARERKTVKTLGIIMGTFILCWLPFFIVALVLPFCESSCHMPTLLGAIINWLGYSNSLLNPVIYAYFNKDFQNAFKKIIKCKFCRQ
# method summary: 5-HT1A receptor Gαi1 BRET (G protein trimer dissociation)
# Type: cell-based
# condition context: relative to endogenous ligand 5-hydroxytryptamine

# molecule, assayed system, Emax / %
records = [
    ("CCOc1cccc2c3c(oc12)CN(CCNC(=O)C1CCCC1)CC3", "5-hydroxytryptamine 1A (5-HT1A) receptors (Homo sapiens (Human))", 96.7),
    ("CCOc1cccc2c3c([nH]c12)CN(CCC1CC(NC(=O)N(C)C)C1)CC3 (stereo not drawn)", "5-hydroxytryptamine 1A (5-HT1A) receptors (Homo sapiens (Human))", 22.3),
    ("CCOc1cccc2c3c(oc12)CN(CCNC(=O)C1CCCCCC1)CC3", "5-hydroxytryptamine 1A (5-HT1A) receptors (Homo sapiens (Human))", 102),
    ("CCOc1cccc2c3c(oc12)CN(CCCCc1ccc2ccc(=O)[nH]c2c1)CC3", "5-hydroxytryptamine 1A (5-HT1A) receptors (Homo sapiens (Human))", 78),
    ("CCOc1cccc2c3c(oc12)CN(CCNC(=O)c1cccs1)CC3", "5-hydroxytryptamine 1A (5-HT1A) receptors (Homo sapiens (Human))", 100),
    ("CCOc1cccc2c3c(oc12)CN(CCNC(=O)c1ccccc1)CC3", "5-hydroxytryptamine 1A (5-HT1A) receptors (Homo sapiens (Human))", 102),
    ("CCOc1cccc2c3c(oc12)CN(CCCCN1C(=O)CC(C)(C)CC1=O)CC3", "5-hydroxytryptamine 1A (5-HT1A) receptors (Homo sapiens (Human))", 74.3),
    ("COc1cccc2c3c(oc12)CN(CCCCn1ncc(=O)n(C)c1=O)CC3", "5-hydroxytryptamine 1A (5-HT1A) receptors (Homo sapiens (Human))", 59.5),
    ("CCOc1cccc2c3c(oc12)CN(CCC1CC(NC(=O)N(C)C)C1)CC3 (stereo not drawn)", "5-hydroxytryptamine 1A (5-HT1A) receptors (Homo sapiens (Human))", 38.4),
]
